# Run Description: yeast display, Sf9 membrane polyspecificity reagent, FACS + sequencing; frameworks hold sequencing errors
Result Type: polyreactivity (PSR sort gate)

Worked cases, polyreactivity (PSR sort gate) given:
Seq String	polyreactivity (PSR sort gate)
QVQLVESGGGLVQAGGSLRLSCAASGRTFSRNAMGWYRQAPGKERELVATISRGGGITFYADSVKGRFTISRDNAKNTVYLQMNSLKPEDTAVYYCNADVRYVGLRRIVDYWGQGTQVTVSS	high polyreactivity
QFQLVESGRGLVQAGGSLRLSCAASGSTILYYAMGWYRQAPGTERELVAAISSSDGSTYYADSVKGRFTISRDNAKYTVYLQMNSLKPEDTAVYYCNADFYWGYNYWGQGTQVTVSS	high polyreactivity
QVQLVESGGGLVQAGGSLRLSCAASGFIFYGYAKGWYRQAPGKERELVAGISTGGSKNYADSVKGRFTISRDNAKNTVYVQMNSLKPEDTAVDYCAVVDVEEHVGHWGQGTQVTVSS	low polyreactivity
QVQLVESGGGLVQAGGTLRLSCAASGRTFTSYTMGWYRQAPGKERELVATISFGGGRTYADSVKGRFTISRDNAKNTVYLQMNSLKTEDTAVYYCNAGYYWRLHWWYYYWGQGTQVTVSS	high polyreactivity
QVQLVESGGGLVQEGGSLRLSCAASGSTFLTYAMGWYRQAPGKERELVAGITRSGASTYYADSVKGRFTISRDNAKNTVYLQMNSLKTEDTAVYYCAATYISHFHRYYYWGQGTQVTVSS	high polyreactivity
QVQLVESGGGLVQAGGSLRLSCAASGFTFWYNDMGWYRQAPGKEREFVAAITTSGGNTYYADSVKGRFTISRDNAKNTVYLNMNSLIPEDTAVYYCAAEEGSSDATGYDYWGQGTQVTVSS	low polyreactivity
QVQLVESGGGLVQAGGSLRLSCAASGSIFTRNAMGWSRQAPGKEREFVAAISSSGVSTYYADSVKGRFTISRDNAKNTVYLQMNSLKPEDTAVYYCAARWGTKSGRYDYWGQGTQVTVSS	high polyreactivity
QVQLVESGGGLVQAGGSLRLSCAASGLTFSKYAMGWYRQAPGKERELVAAITRGDRTYYSDSVRGRFTISRDNAKNTVYLQMNRLKPEDTAVYYCAARQYYWGQGTQVTVSS	high polyreactivity

Looking up QVQLVESGGGLVQAGGSLRLSCAASGRIFPTYAMGWYRQAPGKERELVAAITWRGGRTYYADSEKGRFTISRDYAKNTVYLQMNSLKPEDTAVYYCAAGWLTRSYEYDYWGQGTQVTVSS , I see its polyreactivity (PSR sort gate) listed as high polyreactivity

Quick note, polyreactivity (PSR sort gate) for QVQLVESGGGLVQAGGSLRLSCAASGRIFWDNAMGWYRQAPGKERELVAAIDYRGGNTNYADSVKGRFTISRDNAKNTVYLQMNSLKPEDTAVYYCNAEWAVRYPGYDYWGQGTQVTVSS landed at low polyreactivity

The recorded polyreactivity (PSR sort gate) for QVQLVESGGGLVQAGGSLRLSCAASGSIFGSYAMGWYRQAPGKERELVAAISRRGGSTYYADSVKGRFTISRDNAKNTVYLQMNSLKPEDTAVYYCAARWPTGRNGYWGQGTQVTVSS is high polyreactivity

* * *

# Run Description: yeast display, Sf9 membrane polyspecificity reagent, FACS + sequencing; frameworks hold sequencing errors
Result Type: polyreactivity (PSR sort gate)

Seq String	polyreactivity (PSR sort gate)
QVQLVESGGGLVQAGGSLRLSCAASGSIFRGYAMGWYRQAPGKERELVAAITKRGGNTYYADSVKGRFTISRDNAKNTVYLQMNSLKPDDTAVYYCAKAGWGKWVYAQMDYWGQGTQVTVSS	high polyreactivity
QVQLVESGGGLVQAGGSLRLSCAASGSTFDKNAMGWYRQAPGKERELVDAISIGVSTNYADSVKGRFTISRDNAKNTVYLQMNSLKPEDTAVYYCAADLFFGAETVYYDKFDYWGQGTQVTVSS	low polyreactivity
QVQLVESGGGLVQAGGSLRLICAASGSNFVGYAMGWYRQAPGKERELVAAISRTGASTYYADSVKGRFTISRDNAKNTVYLQMNSLKPEDTAVYYCAYYYSIYDYWGQGTQVTVSS	high polyreactivity
QVQHVESVGGLVQAGGRLRLSSAASGSIFSYNAMGWYRQAPVKERQLVARITRGGDGTYYADSVMVRFTISRDNAKNTVYLQMNSLKPEDTAVYYCAGTPYWYHLRVEGGYWGQGTQVTVSS	low polyreactivity
QVQLVESGGGLVQAGGSLRLSCAASGFTFTYNTMGWYRQAPGKERELVAAISALGTSTYYADSVKGRFTISRDNAKNTVYLQMNSLKPEDTEVYYCAAAYRIGSGYWGQGTQVTVSS	high polyreactivity
QVQLVESGGGLVQAGGSLRLSCAASGFTFVRYAMGWYRQAPGKERELVAAISSSGSSTYYADSVKGRFTISRDHEKNTVYLQMNSLKPEDTAVYYCNARAGRGEDYWGQGTQVTVSS	low polyreactivity

Looking up QVHLVESGGGLVQAGGSLRLRCAASGSTFEYNAMGWYRPAPGKERELVASSTNYADSVKGRFTISRDNAKNTVSLQMNSLKPEDTAVYYCSREQGVNRNHDYWVQGTQVTVSS , I see its polyreactivity (PSR sort gate) listed as low polyreactivity

polyreactivity (PSR sort gate) in this record for QVQLVESGGGLVQAGGSLRLSCAATGIIFHRYVMGWYRQAPGKERELVAVITQRGGSTYYADSVKGRFTISRDNAKNTVYLQMNSLKQEDTAVYYCAARSQYRDRTGQYGYWGQGSQVTVSS : high polyreactivity

The sequence QDQLVESGGGLVQAGGSLRLSCAASRITIYRYVMGWYRQAPGKERELVAAITSAGSTNYADSVKGRFTISRDHAKTTVYLQMNSLKPEDTAVYYCNADYKGYVRPYVRIRYGYWGQGTQVTVSS showed polyreactivity (PSR sort gate) equal to low polyreactivity

Record QVQLVESGGCLVQAGGSLRLSCAASGFIFSGYVMGWYRQAPGKERELVARIDGGGTTNYADSVKGRFTISRDNAKNTVYLQMNSLKPADTAVYYCNARFGEGFDYWGQGTQVTVSS . Reported polyreactivity (PSR sort gate): low polyreactivity

Reported polyreactivity (PSR sort gate) ( QVQLVESGGCLVQAGGSLRLSCAASGSIFYYYAMGWYRQAPGKERELVADISISGGSTYYADSVKGRFTISRDNAKNTVYLQMNSLKPEDTAVYYCAATDYLWEPTVSNWGYTFDSWGQGTQVTVSS ) = low polyreactivity
